Data origin, for the record: PubChem BioAssay (NCATS)

tested on: CP291; assay: qHTS profiling for inhibitors of Plasmodium falciparum proliferation (AID 504749); also: nearly all actives have a fitted effect of over 60% in size; conditions: P. falciparum in erythrocytes, SYBR Green DNA, 72 h; series mostly up to 28.7 µM
Records with an inconclusive call do not appear. Active and inactive are the calls of the source. Calls follow the shape of the dose curve; as a rule, active = well fitted inhibition curve with a large enough effect; inconclusive = small, poorly fitted or top-dose-only effect; inactive = flat fitted curve, though single readings scatter.
Outcome codes: y (active), n (inactive)

Molecule | Group Label
C=C(NCc1ccccc1)c1ccccc1O | n
Nc1ncn(C2C[C@H](O)[C@@H](CO)O2)c(=O)n1 (some centres not stated) | n
CC(=O)O[C@]1(C(C)=O)CCC2C3CCC4=CC(=O)CCC4(C)C3(F)C(O)CC21C (some centres not stated) | n
CCCCCCCCCCCC(=O)OCC(O)C1OCC(O)C1O (configuration not stated) | n
C[C@@H]1C(SC2Cn3cnc[n+]3C2)=C(C(=O)[O-])N2C(=O)[C@H]([C@@H](C)O)[C@@H]12 (some centres not stated) | n
CNC1C(O)C(OC2C(N)CC(N)C(OC3OC(CN)=CCC3N)C2O)OCC1(C)O (configuration not stated) | n
NC(=O)c1ncn(C2OC(CO)C(O)C2O)c1N (configuration not stated) | n
OCCN1CC(O)C(O)C(O)C1CO (configuration not stated) | n
C[C@]12CCC(=O)C=C1[C@@H]1C[C@H]1[C@H]1[C@@H]3[C@@H]4C[C@H]4[C@@]4(CCC(=O)O4)[C@@]3(C)CC[C@@H]12 | n
CC[C@H](C)[C@H]1O[C@]2(CC[C@@H]1C)C[C@@H]1C[C@@H](C/C=C(\C)[C@H](O[C@@H]3C[C@H](OC)[C@H](O[C@@H]4C[C@H](OC)[C@@H](O)[C@H](C)O4)[C@H](C)O3)[C@@H](C)/C=C/C=C3\CO[C@@H]4[C@H](O)C(C)=C[C@@H](C(=O)O1)[C@]34O)O2 | y
Cn1cc(C(=O)[C@@H]2CCc3[nH]cnc3C2)c2ccccc21 | n
COc1ccc(S(=O)(=O)N2c3ccc(Cl)cc3[C@](O)(c3ccccc3Cl)[C@@H]2C(=O)N2CCC[C@H]2C(N)=O)cc1OC | n
O=C(O)[C@H]1C[C@@H](CP(=O)(O)O)CCN1 | n
O=c1[nH]c(=O)n(C2C[C@H](O)[C@@H](CO)O2)cc1C(F)(F)F (some centres not stated) | n
Nc1nc(/C(=C/CC(=O)O)C(=O)NC2C(=O)N3C(C(=O)O)=CCSC23)cs1 (configuration not stated) | n
CC(=O)N1CC(O)CC1C(=O)O (configuration not stated) | n
C[C@]12CC[C@@H]3c4ccc(O)cc4CC[C@H]3[C@@H]1C[C@H](O)C2O (some centres not stated) | n
C=CC1CN2CCC1CC2[C@@H](O)c1ccnc2ccc(OC)cc12 (some centres not stated) | y
C[C@H]1[C@@H](OC(=O)CCC(=O)O)OC2OC3(C)CC[C@H]4[C@H](C)CC[C@@H]1[C@@]24OO3 (some centres not stated) | y
C=C1CC[C@H](O)C/C1=C/C=C1\CCC[C@]2(C)[C@@H]([C@H](C)CCCC(C)(C)O)CC[C@@H]12 | n
CC(c1ncncc1F)[C@](O)(Cn1cncn1)c1ccc(F)cc1F (some centres not stated) | n
Cc1c(C)c2c(c(C)c1O)CCC(C)(CCCC(C)CCCC(C)CCCC(C)C)O2 (configuration not stated) | n
OCC1O[C@H](O[C@H]2C(O)C(O)C(O)O[C@@H]2CO)C(O)C(O)C1O (some centres not stated) | n
CN[C@H](C)CCC=C(C)C | y
CCC(C(=O)C(C)C(O)C(C)CCc1ccc(C)c(O)c1C(=O)O)C1OC(CC)(C2CC[C@@](O)(CC)C(C)O2)CC1C (some centres not stated) | y
CC(=O)OCC(=O)[C@@]1(O)CCC2C3C[C@H](C)C4=CC(=O)C=CC4(C)C3C(O)CC21C (some centres not stated) | n
O=C(OC[C@@H]1O[C@@](O)(COC(=O)c2cccnc2)[C@H](OC(=O)c2cccnc2)[C@H]1OC(=O)c1cccnc1)c1cccnc1 | n
Cc1cc(O)c2c(c1)OC1(C)CCC3C(C)(C)CCCC34COC2C14 (configuration not stated) | n
NC(=O)C1CC2(NC(=O)NC2=O)c2cc(F)ccc2O1 (configuration not stated) | n
CCCCCCCCCCCCCCCC(=O)OCC(COP(=O)(O)OCC[N+](C)(C)C)OC(=O)CCCCCCCCCCCCCCC (configuration not stated) | n
CCC(C)C(N)C(=O)O (configuration not stated) | n
Cc1ccccc1N1C(=O)c2cc(N)ccc2N/C1=C\F | n
Nc1nc(F)nc2c1ncn2[C@@H]1O[C@H](CO)[C@@H](O)[C@H]1O | n
CCC(=O)O[C@]1(C(=O)CCl)[C@@H](C)CC2C3C[C@H](F)C4=CC(=O)C=CC4(C)[C@@]3(F)C(O)CC21C (some centres not stated) | y
COc1ccc(C(=O)/C(Br)=C/C(=O)O)cc1 | n
CC1=C[C@@H](O)CC(C)(C)[C@@H]1/C=C/C(C)=C/C=C/C(C)=C/C=C/C=C(C)/C=C/C=C(C)/C=C/C1=C(C)C[C@H](O)CC1(C)C | n
CO[C@H]1OC2O[C@@]3(C)CC[C@H]4[C@H](C)CC[C@@H]([C@H]1C)[C@@]24OO3 (some centres not stated) | y

====

Measured activity change, negative = inhibition of individual entries
assay: NFAT Signaling Pathway (AID 444); settings: Jurkat NFAT-bla M1, carbachol, beta-lactamase ratio, 5 h; at 17.2 µM (top of the series) unless noted;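 also: carbachol stimulus at about its EC50 of 1 µM final; % is scaled to controls: 0 for no effect and ±100 for the full control effect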
Results filed as inconclusive are left out.

Compound | Output Unit | activity change, negative = inhibition
CC(=O)OCC(=O)[C@H]1CC[C@H]2[C@@H]3CC=C4C[C@@H](O)CC[C@]4(C)[C@H]3CC[C@]12C | % | 4.8
Cc1nc2c(c(N3CCOCC3)n1)OCC(=O)N2 | % | -1.47
Nc1nnc(Cc2ccc(Cl)c(Cl)c2)s1 | % | 2.08
CC(=O)Oc1ccccc1C1OCCN1C(C)=O (stereo unspecified) | % | -10.3
O=C(NCCN1CCCCC1)c1ccc(=O)oc1 | % | 6.11
CCCCOc1ccc(CN(C)c2ncnc(N)n2)cc1 | % | -11.6
COc1ccccc1C1/C(=C(/O)c2ccc(C)cc2)C(=O)C(=O)N1Cc1ccco1 (stereo unspecified) | % | 15.4
Cc1nn(CC(N)=O)c(=O)c2ccccc12 | % | 0.254
CC(C)COC(=O)CCNc1n[nH]c(=O)[nH]c1=O | % | 4.96
Cn1c(=O)c2c(nc(Oc3ccc4c(c3)OCO4)n2Cc2ccc(F)cc2)n(C)c1=O | % | 2.74
CCC(NC(=O)Nc1ccc(O)cc1)(C(F)(F)F)C(F)(F)F | % | 8.99

====

test system: CP268; assay: qHTS profiling for inhibitors of Plasmodium falciparum proliferation (AID 504749); also: nearly all actives have a fitted effect of over 60% in size; settings: P. falciparum in erythrocytes, SYBR Green DNA, 72 h; series mostly up to 28.7 µM
Results filed as inconclusive are left out. Active and inactive are the calls of the source. Calls follow the shape of the dose curve; as a rule, active = well fitted inhibition curve with a large enough effect; inconclusive = small, poorly fitted or top-dose-only effect; inactive = flat fitted curve, though single readings scatter.
Outcome codes: active, inactive

Compound | Assay Target | Group Label
CC(=O)OCC(=O)[C@@]1(O)CCC2C3CCC4=CC(=O)C=CC4(C)C3C(O)C[C@]21C (stereo partly drawn) | CP268 | inactive
CNC1C(O)C(OC2C(N)CC(N)C(OC3OC(CN)=CCC3N)C2O)OCC1(C)O (stereo not drawn) | CP268 | inactive
C[n+]1c2cc(N)ccc2cc2ccc(N)cc21 | CP268 | active
CCC(C(=O)O)C1OC(C(C)C(O)C(C)C(=O)C(CC)C2OC3(C=CC(O)C4(CCC(C)(C5CCC(O)(CC)C(C)O5)O4)O3)C(C)CC2C)C(C)CC1C (stereo not drawn) | CP268 | active
COC(c1ccccc1)(c1ccccc1)C(Oc1nc(C)cc(C)n1)C(=O)O (stereo not drawn) | CP268 | inactive
OCC1OC(O)C(O)C(O)C1O (stereo not drawn) | CP268 | inactive
O=C(O)Cc1sc(-c2ccc(Cl)cc2)nc1-c1ccccc1 | CP268 | inactive
CC1=C(/C=C/C(C)=C\C=C\C(C)=C\C=C\C=C(C)\C=C\C=C(C)\C=C\C2=C(C)C[C@@H](O)CC2(C)C)C(C)(C)C[C@H](O)C1 | CP268 | inactive
COc1ccc2cc1Oc1cc3c(cc1OC)CC[N+](C)(C)C3Cc1ccc(cc1)Oc1c(OC)c(OC)cc3c1C(C2)[N+](C)(C)CC3 (stereo not drawn) | CP268 | inactive
CC(O)C1CCC2C3CCC4CC(O)CCC4(C)C3CCC12C (stereo not drawn) | CP268 | inactive
CCCC(=O)O[C@]1(C(=O)COC(C)=O)CC[C@H]2C3C[C@H](F)C4=CC(=O)C=CC4(C)[C@@]3(F)[C@@H](O)CC21C (stereo partly drawn) | CP268 | inactive
C=C1CCC(O)C/C1=C/C=C1\CCC[C@]2(C)[C@@H]([C@H](C)/C=C/[C@H](C)C(C)C)CC[C@@H]12 (stereo partly drawn) | CP268 | inactive
CC1OC(OC2CCC3(C)C(CCC4C3CC(O)C3(C)C(C5=CC(=O)OC5)CCC43O)C2)CC(O)C1OC1CC(O)C(OC2CC(O)C(OC3OC(CO)C(O)C(O)C3O)C(C)O2)C(C)O1 (stereo not drawn) | CP268 | inactive
CC(c1ncncc1F)[C@](O)(Cn1cncn1)c1ccc(F)cc1F (stereo partly drawn) | CP268 | inactive
O=[N+]([O-])O[C@H]1CO[C@H]2[C@@H]1OC[C@H]2O | CP268 | inactive
CCCC[C@H]1C(=O)N(c2ccccc2)N(c2ccc(O)cc2)C1=O | CP268 | inactive
CC1=C(c2ccc(NN=C(C#N)C#N)cc2)NNC(=O)C1 | CP268 | inactive
CCN1CCN(C(=O)NC(C(=O)NC2C(=O)N3C(C(=O)O)=C(CSc4nnnn4C)CSC23)c2ccc(O)cc2)C(=O)C1=O (stereo not drawn) | CP268 | inactive
